system_name: Orexin receptor type 2 (Homo sapiens, UniProt O43614)
Sequence (O43614 whole entry): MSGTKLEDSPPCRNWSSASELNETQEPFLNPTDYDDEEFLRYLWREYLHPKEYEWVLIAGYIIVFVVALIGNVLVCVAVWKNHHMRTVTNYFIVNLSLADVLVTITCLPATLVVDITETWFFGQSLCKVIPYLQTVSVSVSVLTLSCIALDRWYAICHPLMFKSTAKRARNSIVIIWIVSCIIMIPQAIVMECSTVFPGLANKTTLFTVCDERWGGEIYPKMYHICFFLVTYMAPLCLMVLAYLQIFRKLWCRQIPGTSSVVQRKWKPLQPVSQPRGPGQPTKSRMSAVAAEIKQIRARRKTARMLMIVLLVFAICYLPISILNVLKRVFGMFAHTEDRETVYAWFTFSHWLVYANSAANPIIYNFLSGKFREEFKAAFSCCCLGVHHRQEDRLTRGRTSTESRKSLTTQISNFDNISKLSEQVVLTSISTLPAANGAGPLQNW
test: Counterscreen assay for antagonists of the orexin 1 receptor (OX1R; HCRTR1): Homogeneous Time Resolved Fluorescence (HTRF)-based cell-based dose response assay for antagonists of the orexin 2 receptor (OX2R; HCRTR2), run by assay provider.
Format: functional
Calls of active or inactive are those of the source. Rule as the data show it: active = IC50 of 10 µM or less and inactive = more.
Bench note: report the call from active, inactive

Some solved entries appear below for comparison.
CC[C@]12c3[nH]c4cc(-c5ccco5)ccc4c3CCN1C(=O)[C@@H](CC(=O)NC/C=C(\C)CCC=C(C)C)C[C@@H]2C(=O)N1CCN(C(=O)c2ccco2)CC1	active
Cc1cc(SCC(=O)c2ccc3c(c2)OCO3)nc2ccccc12	inactive
CCN(CC)P(=O)(Nc1cccc(C(F)(F)F)c1)c1ccc(N(C)C)cc1NC(=O)c1ccco1 (centres undefined)	inactive

Now look at this entry.
(Q) Any idea what this test logged for Cc1ccccc1N(CC(=O)NC1CCCC1)C(=O)c1oc(C(C)(C)C)cc1C ?
(A) inactive
